B1: CPEB3 Ribozyme (parent)
chain: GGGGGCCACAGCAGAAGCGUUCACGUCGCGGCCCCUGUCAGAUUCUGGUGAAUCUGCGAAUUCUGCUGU

# Variants of: B1
# Test Description: self-cleavage, relative activity (ratio to wild type); higher = more cleavage; co-transcriptional
Output: class label from self-cleavage. Mapping: lowest = under 0.2, middle = from 0.2 up to 0.6, highest = 0.6 and over

Sample answers from the record:
| Changes | Category Label |
| --- | --- |
| C39G U43A | middle |
| G25C G56A | lowest |
| C18G A40C | lowest |
| C24A G58A | middle |
| U20G G48U | lowest |
| G11U U67A | highest |
| G11C C33G | middle |
| G1C U62G | lowest |
| C12A C24U | middle |
| G14U C24U | lowest |

Which bin, given its self-cleavage, does C6A C63A occupy?
middle

Which bin, given its self-cleavage, does G2U C12G occupy?
lowest
